# Tested on: Plasmodium falciparum
# ASSAY_PROTOCOL: Antiplasmodial activity against asynchronous form of Plasmodium falciparum 3D7 infected in human erythrocytes assessed as parasite growth inhibition at 10 uM after 48 hrs by SYBR green1 staining based flow cytometry relative to control
# Format: functional
# RUN_PARAMETERS: 3D7, 48 h
OBSERVATION_TYPE: inhibition at 10 µM (%)
The reply should be a number in %, with the unit left off.

>>> value_observed("COc1cc2nc(N3CCCN(C)CC3)nc(NC3CCN(Cc4ccccc4)CC3)c2cc1OC")
100
>>> value_observed("BrCCCc1nc(-c2ccc(Br)cc2)no1")
18.7
>>> value_observed("COc1cc2c(NC3CCN(C(C)C)CC3)nc(C3CCCCC3)nc2cc1OCCCN1CCCC1")
100
>>> value_observed("c1ccc(CCCN2CCC(Nc3nc(N4CCN(c5ccccc5)CC4)nc4ccccc34)CC2)cc1")
100
>>> value_observed("COc1ccc2c(NC3CCN(Cc4ccccc4)CC3)nc(N3CCN(c4ccccc4)CC3)nc2c1")
100

Given Cc1cc(C)c(CNC(=O)c2cnn(-c3ccccc3)c2C)c(=O)[nH]1 , respond with its inhibition at 10 µM.
14.7

In one line, give reported inhibition at 10 µM of the entry O=S(=O)(c1cccc(C(F)(F)F)c1)N1c2ccccc2-n2cccc2C1c1cccnc1 (stereo not given) .
99.5

In one line, give reported inhibition at 10 µM of the entry O=C(/C=C/c1ccc(Cc2nnc(Cc3cccc4ccccc34)o2)cc1)NO .
98

For the compound NC1CC1c1ccc(NC(=O)CCCCNC(=O)c2ccc(O)c3ncccc23)cc1 (stereo not given) , give its measured inhibition at 10 µM value.
97.8

For the compound O=C(CCCCCSc1nc(-c2ccc(-c3ccccc3)cc2)cc(=O)[nH]1)NO , report inhibition at 10 µM.
97.4

For the compound O=C1/C(=C/c2ccc(O)c(Br)c2)CSC/C1=C\c1ccc(O)c(Br)c1 , report inhibition at 10 µM.
99.5

Indicate its recorded inhibition at 10 µM; the compound in question is NC1CC1c1ccc(NC(=O)c2ccc(-c3ccccc3)cc2)cc1 (stereo not given)
97.5

Return inhibition at 10 µM for the following compound: O=C(CCCCSc1nc(-c2ccc(Cl)cc2)cc(=O)[nH]1)NO
98

Tell me its inhibition at 10 µM given COc1cc2c(NC3CCN(Cc4ccccc4)CC3)nc(N3CCN(c4ccccc4)CC3)nc2cc1O as the entry.
100

Let me know recorded inhibition at 10 µM for O=c1nc2oc3ccc4ccccc4c3cc-2c(=O)n1-c1ccccc1 , thanks.
80.5

Return reported inhibition at 10 µM. Input compound: COc1ccc2nc(N3CCN(c4ccccc4)CC3)nc(NC3CCN(Cc4ccccc4)CC3)c2c1
100

Answer with the recorded inhibition at 10 µM of O=C(Cc1cccc2ccccc12)Nc1ccc(C(=O)NO)nc1 only.
97.9

Quick one: give measured inhibition at 10 µM for COc1ccc(CCN2CCC(Nc3nc(NCc4ccc(F)cc4)nc4cc(OC)c(OC)cc34)CC2)cc1
100

Return the recorded inhibition at 10 µM value; entry: c1ccc(N2CCN(c3nc(NC4CCN(Cc5ccc6ccccc6c5)CC4)c4ccccc4n3)CC2)cc1
100

====

# System: Plasmodium falciparum
# ASSAY_PROTOCOL: Antiplasmodial activity against asynchronous form of Plasmodium falciparum 3D7 infected in human erythrocytes assessed as parasite growth inhibition after 48 hrs by SYBR green1 staining based flow cytometry
# Assay type: functional, organism-based
# RUN_PARAMETERS: 3D7, 48 h
Hi! Could you tag entries with IC50 below 100 nM as y, and those at or above as n? Much appreciated.

>>> class_assignment("O=C(CCCCSc1nc(-c2ccc3ccccc3c2)cc(=O)[nH]1)NO")
"y"

Decide: IC50 of CCOC(=O)c1c(C)nc2ccccc2c1O strictly below 100 nM?
n
